# Measured On: Serine/threonine-protein kinase VRK3 (Homo sapiens) (UniProt Q8IV63)
# Sequence (Q8IV63 whole entry): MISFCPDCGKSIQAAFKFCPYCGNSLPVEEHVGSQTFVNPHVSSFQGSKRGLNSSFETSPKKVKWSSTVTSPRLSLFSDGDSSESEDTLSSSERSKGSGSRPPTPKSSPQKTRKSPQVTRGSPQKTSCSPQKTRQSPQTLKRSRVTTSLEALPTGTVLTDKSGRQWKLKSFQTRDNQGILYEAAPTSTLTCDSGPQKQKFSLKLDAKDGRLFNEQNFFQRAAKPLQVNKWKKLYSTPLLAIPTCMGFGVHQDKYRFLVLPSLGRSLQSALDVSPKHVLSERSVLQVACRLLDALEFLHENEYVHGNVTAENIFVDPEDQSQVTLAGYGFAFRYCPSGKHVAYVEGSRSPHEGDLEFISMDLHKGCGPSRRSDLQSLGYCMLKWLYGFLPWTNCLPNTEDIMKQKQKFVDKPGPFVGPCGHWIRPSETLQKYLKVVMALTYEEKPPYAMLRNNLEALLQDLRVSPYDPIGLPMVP
Class membership depends on ΔTm alone; the intervals are interval 1 (below 0 °C), interval 2 (0 °C to below 0.4 °C), interval 3 (0.4 °C or more)

Compound	Label
COc1cc2ncnc(Nc3ccc(F)c(Cl)c3)c2cc1OCCCN1CCOCC1	interval 3
CC[C@H](CO)Nc1nc(NCc2ccccc2)c2ncn(C(C)C)c2n1 [SELICICLIB]	interval 3
COc1cc(OC)c(/C=C2\C(=O)Nc3ccccc32)c(OC)c1	interval 3
C[C@@H]1C[C@H]2O[C@@H]2/C=C\C=C\C(=O)Cc2c(Cl)c(O)cc(O)c2C(=O)O1 [RADICICOL]	interval 1
CCOc1ccc(/C=C2/SC(=O)N(CCN)C2=O)cc1 [HIAZOLIDINEDIONE1]	interval 1
c1ccc(-c2n[nH]c3c2oc2ccccc23)cc1	interval 3
Oc1ccc(-c2nc(-c3ccc(F)cc3)c(-c3ccncc3)[nH]2)cc1	interval 2
Cc1cc(C=C2C(=O)C=CC2=O)cc(C)c1O	interval 1
C=CNC#N	interval 3
O=c1cc(N2CCOCC2)oc2c1ccc1ccccc12	interval 3
NCCNS(=O)(=O)c1cccc2c(Cl)cccc12	interval 2
Nc1cccc(-c2cc3c(Oc4cccc(O)c4)ncnc3[nH]2)c1	interval 3
COc1nccc(-c2c(-c3ccc(F)cc3)ncn2[C@H]2CC[C@H](O)CC2)n1	interval 1
Nc1ncnc2c1c(I)cn2[C@@H]1O[C@H](CO)[C@@H](O)[C@H]1O	interval 2
O=C1NC(=O)C(c2c[nH]c3ccccc23)=C1c1c[nH]c2ccccc12	interval 3
O=S(=O)(NCCNC/C=C/c1ccc(Br)cc1)c1cccc2cnccc12	interval 2
NS(=O)(=O)c1ccc(Nc2nc(OCC3CCCCC3)c3nc[nH]c3n2)cc1	interval 3
CCOc1cc(/C=C(\C#N)C(N)=O)cc(CSc2ccccc2)c1O	interval 1
O=c1c(O)c(-c2ccc(O)c(O)c2)oc2cc(O)cc(O)c12 [QUERCETIN]	interval 1
NC(=O)c1ccc2[nH]c(-c3ccc(Oc4ccc(Cl)cc4)cc3)nc2c1	interval 3
Ic1cccc(CSc2nnc(-c3ccncc3)o2)c1	interval 1
Cc1cc2ncc(-c3ccccc3)nc2cc1C	interval 3
O=C1Nc2ccccc2/C1=C\c1ccc[nH]1	interval 2
COc1ccc(CNC(=O)Nc2ncc([N+](=O)[O-])s2)cc1	interval 1
CC(C)(C)c1cc(C=C2C(=O)C=CC2=O)cc(C(C)(C)C)c1O	interval 1
O=c1ccc2ccc(O)c(O)c2o1 [DAPHNETIN]	interval 1
Cc1c2ccncc2c(C)c2c1[nH]c1ccccc12 [ELLIPTECINE]	interval 3
N#C/C(=C(/N)Sc1ccc(N)cc1)c1ccccc1C(F)(F)F	interval 3
CN(C)CC1CCn2c(c(C3=C(c4c[nH]c5ccccc45)C(=O)NC3=O)c3ccccc32)C1 (centres undefined)	interval 3
CCOc1cc2ncnc(Nc3cccc(Br)c3)c2cc1OCC	interval 2
Oc1cc(O)cc(/C=C/c2ccc(O)c(O)c2)c1 [PICEATANNOL]	interval 1
O=C1c2ccccc2-[n+]2ccc3c([nH]c4ccccc43)c21 [FASCAPLYSIN CHLORIDE]	interval 1
N=C(N)NCCNS(=O)(=O)c1cccc2cnccc12	interval 2
Oc1cccc(-c2nc(N3CCOCC3)c3oc4ncccc4c3n2)c1	interval 2
O=C(O)/C=C/c1cc(CO)ccc1CO	interval 2
Cc1ccc(NC(=O)c2ccc(CN3CCN(C)CC3)cc2)cc1Nc1nccc(-c2cccnc2)n1	interval 1
COc1cc(O)c2c(c1)oc(=O)c1c3cc(O)c(O)cc3oc21 [WEDELOLACTONE]	interval 1
